Every entry's value here was drawn from ChEMBL document CHEMBL4393680.

Test system: A-375
test_details: Antiproliferative activity against human A375 cells assessed as reduction in cell growth at 2 uM incubated for 72 hrs by CCK-8 assay relative to control
Type: functional
test_parameters: A-375, 72 h
Use 30% as the dividing line for inhibition at 2 µM, with the line itself on the label 1 side and lower values as label 0.

>  <smiles_repr>
Cn1c(SCc2ccc(C(=O)Nc3ccccc3N)cc2)nc2cc(Cl)ccc2c1=O

>  <group_label>
label 1

$$$$
>  <smiles_repr>
Cn1c(SCc2ccc(C(=O)Nc3ccccc3N)cc2)nc2cc(Br)ccc2c1=O

>  <group_label>
label 1

$$$$
>  <smiles_repr>
CCCn1c(SCc2ccc(/C=C/C(=O)Nc3ccccc3N)cc2)nc2cc(Cl)ccc2c1=O

>  <group_label>
label 0

$$$$
>  <smiles_repr>
Cc1ccc2nc(SCc3ccc(C(=O)Nc4ccccc4N)cc3)n(C)c(=O)c2c1

>  <group_label>
label 1

$$$$
